test system: Enterococcus faecalis (GC 6189); assay: acute lethal infection in mice; assay type: in vivo; settings: female CD-1 mice, intraperitoneal challenge, intravenous 30 min. after infection, 7 day survival
Give measured median effective dose (ED50), Enterococcus faecalis (GC 6189) for each item. Keep answers brief.
Give the value in mg/kg but do not write mg/kg after it.

Missing value: median effective dose (ED50), Enterococcus faecalis (GC 6189), Enterococcus faecalis (GC 6189), entry CC(c1ccccc1)C1NC(=O)CNC(=O)C(CO)NC(=O)C(C(O)C2CNC(=N)N2C2OC(CO)C(O)C(O)C2O)NC(=O)C(C(O)C2CNC(=N)N2)NC(=O)C(Cc2ccc(OC3OC(CO)C(OC4OC5COC(C6CCCC6)OC5C(O)C4O)C(O)C3O)cc2)NC1=O (centres unmarked) [Example 117] . Fill in?
0.38

Missing value: median effective dose (ED50), Enterococcus faecalis (GC 6189), Enterococcus faecalis (GC 6189), entry CC(c1ccccc1)C1NC(=O)CNC(=O)C(CO)NC(=O)C(C(O)C2CNC(=N)N2C2OC(CO)C(O)C(O)C2O)NC(=O)C(C(O)C2CNC(=N)N2)NC(=O)C(Cc2ccc(OC3OC(CO)C(OC4OC5COC(Cc6ccc(F)cc6)OC5C(O)C4O)C(O)C3O)cc2)NC1=O (centres unmarked) [Example 121] . Fill in?
0.5

Missing value: median effective dose (ED50), Enterococcus faecalis (GC 6189), Enterococcus faecalis (GC 6189), entry CCC(CC)C1OCC2OC(OC3C(CO)OC(Oc4ccc(CC5NC(=O)C(C(C)c6ccccc6)NC(=O)CNC(=O)C(CO)NC(=O)C(C(O)C6CNC(=N)N6C6OC(CO)C(O)C(O)C6O)NC(=O)C(C(O)C6CNC(=N)N6)NC5=O)cc4)C(O)C3O)C(O)C(O)C2O1 (centres unmarked) [Example 116] . Fill in?
0.46

Missing value: median effective dose (ED50), Enterococcus faecalis (GC 6189), Enterococcus faecalis (GC 6189), entry CCCC(C)C1OCC2OC(OC3C(CO)OC(Oc4ccc(CC5NC(=O)C(C(C)c6ccccc6)NC(=O)CNC(=O)C(CO)NC(=O)C(C(O)C6CNC(=N)N6C6OC(CO)C(O)C(O)C6O)NC(=O)C(C(O)C6CNC(=N)N6)NC5=O)cc4)C(O)C3O)C(O)C(O)C2O1 (centres unmarked) [Example 111] . Fill in?
0.28

Missing value: median effective dose (ED50), Enterococcus faecalis (GC 6189), Enterococcus faecalis (GC 6189), entry CC(c1ccccc1)C1NC(=O)CNC(=O)C(CO)NC(=O)C(C(O)C2CNC(=N)N2C2OC(CO)C(O)C(O)C2O)NC(=O)C(C(O)C2CNC(=N)N2)NC(=O)C(Cc2ccc(OC3OC(CO)C(OC4OC5COC(C6CC=CCC6)OC5C(O)C4O)C(O)C3O)cc2)NC1=O (centres unmarked) [Example 115] . Fill in?
0.36
